This collection of values is drawn from the Immune Epitope Database (IEDB).

# Measurement Target: HLA-A*02:19
# Test Protocol: IEDB peptide-MHC binding, purified MHC/competitive/fluorescence; filed as Kd, often an IC50 or EC50 that approximates it; bounds were set here for any values at or beyond the usual limits of such assays
# Setup Conditions: source organism: Orthomarburgvirus marburgense
Measured Endpoint: Kd

Give the measured Kd of GIADFIIFK .
≥ 20 µM

* * *

# Measurement Target: HLA-A*02:01
# Test Protocol: IEDB peptide-MHC binding, purified MHC/competitive/fluorescence; filed as Kd, often an IC50 or EC50 that approximates it; bounds were set here for any values at or beyond the usual limits of such assays
# Setup Conditions: source organism: Orthohantavirus delgaditoense
pKd: −log10 of the molar value.
Measured Endpoint: pKd

Give its pKd value. Item: DWMERIEDF
≤ 4.70

* * *

# Measurement Target: HLA-A*02:03
# Test Protocol: IEDB peptide-MHC binding, purified MHC/direct/fluorescence; filed as Kd, often an IC50 or EC50 that approximates it; bounds were set here for any values at or beyond the usual limits of such assays
# Setup Conditions: source organism: Rio Mearim virus
pKd: −log10 of the molar value.
Measured Endpoint: pKd

Query (sequence): DWMERIEDF ; field requested: pKd
≤ 4.70

* * *

# Measurement Target: HLA-A*24:02
# Test Protocol: IEDB peptide-MHC binding, purified MHC/competitive/fluorescence; bounds were set here for any values at or beyond the usual limits of such assays
# Setup Conditions: source organism: Sudan ebolavirus
pIC50: −log10 of the molar value.
Assign class by pIC50: not lower than 5 means MET; lower than 5 means NOT MET.

# bool: pIC50 of NRKAIDFLL >= 5
NOT MET

And then SYYATSYLE , what is it?
MET

Would you mind doing SPGMVPLHI as well?
NOT MET

Repeat for the following sequence: IAWIPYFGP
NOT MET

Next entry: LFKIDNNTF
MET

Let us now turn to AEGVIAFLI
MET

* * *

# Measurement Target: HLA-A*03:01
# Test Protocol: IEDB peptide-MHC binding, purified MHC/direct/fluorescence; filed as Kd, often an IC50 or EC50 that approximates it; bounds were set here for any values at or beyond the usual limits of such assays
# Setup Conditions: source organism: Zaire ebolavirus
pKd: −log10 of the molar value.
Measured Endpoint: pKd

What pKd appears in the records for this sequence with HLA-A*03:01? IFLKPDETF
≤ 4.70

Try SQVRVPTVF next.
≤ 4.70

* * *

# Measurement Target: HLA-B*58:01
# Test Protocol: IEDB peptide-MHC binding, purified MHC/direct/fluorescence; filed as Kd, often an IC50 or EC50 that approximates it; bounds were set here for any values at or beyond the usual limits of such assays
# Setup Conditions: source organism: Salmonella enterica subsp. enterica serovar Typhimurium
Measured Endpoint: Kd (nM)
The figure you give is taken to be in nM; do not add the unit.

Request the reported Kd associated with YLGPTIRVW
127

* * *

# Measurement Target: HLA-B*27:05
# Test Protocol: IEDB peptide-MHC binding, purified MHC/direct/fluorescence; filed as Kd, often an IC50 or EC50 that approximates it; bounds were set here for any values at or beyond the usual limits of such assays
# Setup Conditions: source organism: Escherichia coli O157:H7
pKd: −log10 of the molar value.
Measured Endpoint: pKd

Returns the measured pKd for the input sequence. Input: YLGTPNNTY
≤ 4.70
